Each recorded value in this set is attributed to patent US20260042764A1.

Target: Avi-KRAS WT (1-169) GppNHp/RAF1 RBD-3xFLAG (52-151) (Homo sapiens, UniProt P01116)
Construct: Avi-KRAS WT (1-169)
Sequence (P01116 1-169 isoform P01116-2): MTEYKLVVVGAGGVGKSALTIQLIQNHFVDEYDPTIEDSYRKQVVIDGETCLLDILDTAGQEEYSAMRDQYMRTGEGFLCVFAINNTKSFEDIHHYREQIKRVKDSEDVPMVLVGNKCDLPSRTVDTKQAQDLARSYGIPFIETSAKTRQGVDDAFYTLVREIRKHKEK
Assay: Raf1-KRAS WT-GppNHP disruption HTRF assay (Biological Example 1)
Type: binding
Conditions: KRAS WT, GppNHp-loaded; Table 11
pIC50: −log10 of the molar value.
Outcome measure: pIC50

Ask: So what does the record say about pIC50 for `CN(c1nc(OC[C@@]23CCCN2C[C@H](F)C3)nc2c(F)c(-c3ccc(F)c4sc(N)c(C#N)c34)c(C(F)(F)F)cc12)[C@H]1CCN(S(C)(=O)=O)C1` ?
Reply: 6.00 to 7.00

Ask: So what does the record say about pIC50 for `CCN(CC)c1nc(OC[C@@]23CCCN2C[C@H](F)C3)nc2c(F)c(-c3ccc(F)c4sc(N)c(C#N)c34)c(C(F)(F)F)cc12` ?
Reply: 6.00 to 7.00

Ask: So what does the record say about pIC50 for `N#Cc1c(N)sc2c(F)ccc(-c3c(C(F)(F)F)cc4c(N5CCC(CO)CC5)nc(OC[C@@]56CCCN5C[C@H](F)C6)nc4c3F)c12` ?
Reply: 6.00 to 7.00

====

Give measured pIC50 for each item. Keep answers brief.
Biological target: Avi-KRAS G12V (1-169) GppNHp/RAF1 RBD-3xFLAG (52-151) (Homo sapiens, UniProt P01116, G12V)
Construct: Avi-KRAS G12V (1-169)
Sequence (P01116 1-169 isoform P01116-2 G12V): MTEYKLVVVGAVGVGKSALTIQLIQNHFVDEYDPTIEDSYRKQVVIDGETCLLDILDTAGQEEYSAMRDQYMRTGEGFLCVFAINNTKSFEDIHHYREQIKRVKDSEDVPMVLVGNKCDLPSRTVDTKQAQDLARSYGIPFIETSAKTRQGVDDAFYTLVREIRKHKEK
Assay: Raf1-KRAS G12V-GppNHP disruption HTRF assay (Biological Example 1)
Format: binding
Details: KRAS G12V, GppNHp-loaded; class symbols
pIC50: −log10 of the molar value.

Ask: So what does the record say about pIC50 for Cc1c(C(=O)N(C)C)nn2c1CN(c1nc(OC[C@@]34CCCN3C[C@H](F)C4)nc3c(F)c(-c4ccc(F)c5sc(N)c(C#N)c45)c(C(F)(F)F)cc13)CC2 (atropisomer, axis not shown; (aS)) ?
Reply: > 7.00

Ask: So what does the record say about pIC50 for CCN(c1nc(OCC23CCCN2CC(F)C3)nc2c(F)c(-c3ccc(F)c4sc(N)c(C#N)c34)c(C(F)(F)F)cc12)C1CC(C)N(C(=O)N2CC(F)C2)C1 (centres unmarked) ?
Reply: > 7.00

Ask: So what does the record say about pIC50 for CN(Cc1cccnc1)c1nc(OC[C@@]23CCCN2C[C@H](F)C3)nc2c(F)c(-c3ccc(F)c4sc(N)c(C#N)c34)c(C(F)(F)F)cc12 (atropisomer, axis not shown) ?
Reply: 6.00 to 7.00

Ask: So what does the record say about pIC50 for CCN(c1nc(OC[C@@]23CCCN2C[C@H](F)C3)nc2c(F)c(-c3ccc(F)c4sc(N)c(C#N)c34)c(C(F)(F)F)cc12)[C@H]1CCN(C(=O)[C@@H]2CCCO2)C1 (atropisomer, axis not shown) ?
Reply: > 7.00

Ask: So what does the record say about pIC50 for CCN(c1nc(OC[C@@]23CCCN2C[C@H](F)C3)nc2c(F)c(-c3ccc(F)c4sc(N)c(C#N)c34)c(C(F)(F)F)cc12)[C@H]1C[C@@H](C)N(C(=O)N2CC(OC)C2)C1 (atropisomer, axis not shown) ?
Reply: 6.00 to 7.00

====

Biological target: Avi-KRAS G12R (1-169) GppNHp/RAF1 RBD-3xFLAG (52-151) (Homo sapiens, UniProt P01116, G12R)
Construct: Avi-KRAS G12R (1-169)
Sequence (P01116 1-169 isoform P01116-2 G12R): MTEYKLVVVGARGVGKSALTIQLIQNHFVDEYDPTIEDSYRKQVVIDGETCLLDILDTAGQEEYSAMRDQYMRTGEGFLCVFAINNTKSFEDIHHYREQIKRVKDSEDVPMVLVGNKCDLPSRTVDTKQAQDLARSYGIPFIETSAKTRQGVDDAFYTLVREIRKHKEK
Experiment: Raf1-KRAS G12R-GppNHP disruption HTRF assay (Biological Example 1)
Type: binding
Conditions: KRAS G12R, GppNHp-loaded; Table 11
Description: A protein:protein interaction (PPI) Homogeneous Time Resolved Fluorescence (HTRF) assay was used to determine the effectiveness of compounds of the present disclosure in disrupting KRAS protein and effector RAF1 binding. The assay buffer included: 50 mM Tris pH 7.5, 100 mM NaCl, 5 mM MgCl2, 0.1% BSA, 0.01% Tween, and 10% DMSO. The bead buffer included: 50 mM Tris pH 7.5, and 0.01% Tween 20. […] Data was reported as percentage of activity, with DMSO as 100%. Data was plotted and analyzed using Prism 8.
Give measured IC50 for each item. Keep answers brief.

Ask: Avi-KRAS G12R (1-169) GppNHp/RAF1 RBD-3xFLAG (52-151) (Homo sapiens, UniProt P01116, G12R) / IC50 / CN(c1nc(OC[C@@]23CCCN2C[C@H](F)C3)nc2c(F)c(-c3ccc(F)c4sc(N)c(C#N)c34)c(C(F)(F)F)cc12)[C@H]1C[C@@H](O)C1 (single isomer, unassigned) [Compound 20] : value?
Reply: 1000 to 10000 nM

Ask: Avi-KRAS G12R (1-169) GppNHp/RAF1 RBD-3xFLAG (52-151) (Homo sapiens, UniProt P01116, G12R) / IC50 / C[C@@H]1COC[C@H](C)N1c1nc(OC[C@@]23CCCN2C[C@H](F)C3)nc2c(F)c(-c3ccc(F)c4sc(N)c(C#N)c34)c(C(F)(F)F)cc12 [Compound 201] : value?
Reply: 100 to 1000 nM

Ask: Avi-KRAS G12R (1-169) GppNHp/RAF1 RBD-3xFLAG (52-151) (Homo sapiens, UniProt P01116, G12R) / IC50 / CN(c1nc(OCC2(CN3CCOCC3)CC2)nc2c(F)c(-c3ccc(F)c4sc(N)c(C#N)c34)c(C(F)(F)F)cc12)[C@H]1C[C@@H](O)C1 (atropisomer, axis not shown) [Compound 122] : value?
Reply: 100 to 1000 nM

====

Biological target: Avi-KRAS G12V (1-169) GppNHp/RAF1 RBD-3xFLAG (52-151) (Homo sapiens, UniProt P01116, G12V)
Construct: Avi-KRAS G12V (1-169)
Experiment: Raf1-KRAS G12V-GppNHP disruption HTRF assay (Biological Example 1)
Format: binding
Conditions: KRAS G12V-GppNHp/RAF1 RBD HTRF
pIC50: −log10 of the molar value.
Outcome measure: pIC50

Ask: So what does the record say about pIC50 for N#Cc1c(N)sc2c(F)ccc(-c3c(C(F)(F)F)cc4c(N5CCC[C@@H](CO)C5)nc(OC[C@@]56CCCN5C[C@H](F)C6)nc4c3F)c12 [Compound 316] ?
Reply: 5.00 to 6.00

Ask: So what does the record say about pIC50 for N#Cc1c(N)sc2c(F)ccc(-c3c(C(F)(F)F)cc4c(N5C[C@H]6C[C@@H]5CO6)nc(OC[C@@]56CCCN5C[C@H](F)C6)nc4c3F)c12 (single isomer, unassigned) [Compound 287] ?
Reply: 6.00 to 7.00

Ask: So what does the record say about pIC50 for CN(c1nc(OC[C@@]23CCCN2C[C@H](F)C3)nc2c(F)c(-c3ccc(F)c4sc(N)c(C#N)c34)c(C(F)(F)F)cc12)[C@H]1C[C@H](CF)N(C(=O)C2CC2)C1 [Compound 462] ?
Reply: 6.00 to 7.00

====

Give measured pIC50 for each item. Keep answers brief.
Target: Avi-KRAS G12V (1-169) GppNHp/RAF1 RBD-3xFLAG (52-151) (Homo sapiens, UniProt P01116, G12V)
Construct: Avi-KRAS G12V (1-169)
Assay: Raf1-KRAS G12V-GppNHP disruption HTRF assay (Biological Example 1)
Format: binding
Conditions: KRAS G12V-GppNHp/RAF1 RBD HTRF
pIC50: −log10 of the molar value.

Ask: So what does the record say about pIC50 for `CN(C)C(=O)c1nnn2c1CN(c1nc(OC[C@@]34CCCN3C[C@H](F)C4)nc3c(F)c(-c4ccc(F)c5sc(N)c(C#N)c45)c(C(F)(F)F)cc13)CC2` ?
Reply: 6.00 to 7.00

Ask: So what does the record say about pIC50 for `CC(=O)N1CC[C@@H]2[C@H]1CN2c1nc(OC[C@@]23CCCN2C[C@H](F)C3)nc2c(F)c(-c3ccc(F)c4sc(N)c(C#N)c34)c(C(F)(F)F)cc12` ?
Reply: 6.00 to 7.00

Ask: So what does the record say about pIC50 for COC1C2CN(c3nc(OC[C@@]45CCCN4C[C@H](F)C5)nc4c(F)c(-c5ccc(F)c6sc(N)c(C#N)c56)c(C(F)(F)F)cc34)C1CO2 (some centres unmarked) ?
Reply: 6.00 to 7.00

Ask: So what does the record say about pIC50 for `CN1C[C@@H](N(C)c2nc(OC[C@@]34CCCN3C[C@H](F)C4)nc3c(F)c(-c4ccc(F)c5sc(N)c(C#N)c45)c(C(F)(F)F)cc23)CC1=O` ?
Reply: 6.00 to 7.00

Ask: So what does the record say about pIC50 for `CC(=O)N1C[C@H]2OCCN(c3nc(OC[C@@]45CCCN4C[C@H](F)C5)nc4c(F)c(-c5ccc(F)c6sc(N)c(C#N)c56)c(C(F)(F)F)cc34)[C@H]2C1` ?
Reply: 5.00 to 6.00
